method_description: A CellTox Green Cytotoxicity Assay to monitor cytotoxicity in HEK293 cells - 40 hour (AID 1224871); also: nearly all actives have a fitted effect of over 45% in size
assay_conditions: CellTox Green fluorescence; series mostly up to 76.8 µM
Records with an inconclusive call do not appear. Activity calls are given as the source filed them. Calls follow the shape of the dose curve; as a rule, active = well fitted activation curve with a large enough effect in the repeat runs; inconclusive = weak or mixed curves; inactive = flat fitted curve, though single readings scatter.
Respond using exactly one of the listed classes: active, inactive

Qu. Hi, do you know how Cc1nnc2n1-c1sc(CCc3ccc(CC(C)C)cc3)cc1C(c1ccccc1Cl)=NC2C (stereo not drawn) came out in this test?
Ans. active

Qu. Hi, do you know how "O=C1C(I)=CC(=C(c2cc(I)c(O)c(I)c2)c2ccccc2C(=O)O)C=C1I" came out in this test?
Ans. inactive

Qu. Hi, do you know how "N#Cc1cc([N+](=O)[O-])ccc1N" came out in this test?
Ans. inactive

Qu. Hi, do you know how "Cc1ccc(N(SC(F)(Cl)Cl)S(=O)(=O)N(C)C)cc1" came out in this test?
Ans. active

Qu. Hi, do you know how "COc1cc(OC)c(OC)cc1C=O" came out in this test?
Ans. inactive

Qu. Hi, do you know how "OCC(c1ccc(Cl)cc1)c1ccc(Cl)cc1" came out in this test?
Ans. active

Qu. Hi, do you know how "O=C(c1ccccc1)C(Cl)Cl" came out in this test?
Ans. active

Qu. Hi, do you know how "COc1ccc(C(c2ccc(OC)cc2)C(Cl)(Cl)Cl)cc1" came out in this test?
Ans. inactive

* * *

method_description: qHTS assay to identify small molecule antagonists of the glucocorticoid receptor (GR) signaling pathway - cell viability counter screen (AID 720693); also: nearly all actives have a fitted effect of over 55% in size
assay_conditions: GR-bla HeLa viability, CellTiter-Glo luminescence, 18 h, with 5 nM dexamethasone present; series mostly up to 58.5 µM
Records with an inconclusive call do not appear. Calls of active or inactive are those of the source. The call rests on the fitted dose curve; in most records, active means well fitted cell-killing curve with a large enough effect in the repeat runs; inconclusive means weak or mixed curves, or effect the other way; inactive means no such curve, though single readings can be large or run the other way.
Respond using exactly one of the listed classes: active, inactive

Qu. Hi, do you know how "C[C@@H]([C@H](O)c1ccccc1)N(C)C" came out in this test?
Ans. inactive

Qu. Hi, do you know how NC(=O)CN1CC(O)CC1=O (stereo unspecified) came out in this test?
Ans. inactive

Qu. Hi, do you know how Clc1ccc(C(Cn2ccnc2)OCc2csc3c(Cl)cccc23)c(Cl)c1 (stereo unspecified) came out in this test?
Ans. inactive

Qu. Hi, do you know how CCNCC(O)c1cccc(O)c1 (stereo unspecified) came out in this test?
Ans. inactive

Qu. Hi, do you know how O=C1C[C@@H]2OCC=C3CN4CC[C@]56c7ccccc7N1[C@H]5[C@H]2[C@H]3C[C@H]46 (tested in a mixture with another compound) came out in this test?
Ans. inactive

Qu. Hi, do you know how COc1ccc2c(c1)C13CCCC[C@@H]1C(C2)N(C)CC3 (stereo partly specified) came out in this test?
Ans. inactive

Qu. Hi, do you know how C1CN(P2(N3CC3)=NP(N3CC3)(N3CC3)=NP(N3CC3)(N3CC3)=N2)CCO1 (stereo unspecified) came out in this test?
Ans. inactive

Qu. Hi, do you know how CCC1(c2ccccc2)C(=O)NC(=O)N(C(=O)c2ccccc2)C1=O (stereo unspecified) came out in this test?
Ans. inactive

Qu. Hi, do you know how "CCCN1CCC[C@H](c2cccc(O)c2)C1" came out in this test?
Ans. inactive

Qu. Hi, do you know how COC(COC(N)=O)C1=C(N2CC2)C(=O)C(C)=C(N2CC2)C1=O (stereo unspecified) came out in this test?
Ans. active

Qu. Hi, do you know how "c1ccc(C2(N3CCCC3)CCCCC2)cc1" came out in this test?
Ans. active
